MEASUREMENT KIND: melting point

The recorded melting point for Cc1ccncc1C(=O)O is 199 to 201 °C

The recorded melting point for Cc1[nH]n(-c2ccc(C#N)cc2)c(=N)c1C is 180 to 182 °C

The recorded melting point for O=C(O)c1nccnc1Sc1ccccc1 is 154 to 156 °C

The recorded melting point for O=C(O)Cc1cccc(OCc2ccccn2)c1 is 123 to 125 °C

The recorded melting point for Cc1cc(NC(=O)OC(C)(C)C)sc1C is 102 to 104 °C

The recorded melting point for O=C(O)c1cn(-c2ccccc2)nc1-c1ccc(Cl)cc1 is 246 to 248 °C

The recorded melting point for Cc1nn(C)c(C)c1C(C)C(=O)O (stereo not drawn) is 119 to 121 °C

The recorded melting point for Nc1ccc(C(=O)NCCN2CCCC2)cc1 is 137 to 139 °C

The recorded melting point for O=C(c1ccc(Cl)cc1Cl)N1CCNCC1 is 108 to 110 °C

The recorded melting point for Cc1c(F)cc(C(=O)O)cc1[N+](=O)[O-] is 168 to 170 °C

The recorded melting point for N#Cc1ccc2c(c1)CC(=O)N2 is 249 to 251 °C

The recorded melting point for Nc1cc(-c2ccoc2)nn1-c1ccccc1 is 129 to 131 °C

The recorded melting point for Ic1ccc(OCc2ccncc2)cc1 is 152 to 154 °C

The recorded melting point for Nc1ccc(N2CCc3sccc3C2)cc1 is 61 to 63 °C

The recorded melting point for Cc1n[nH]c(C)c1S(=O)(=O)N1CCCCC1 is 72 to 73 °C

The recorded melting point for COc1ccc(-c2cc(C(=O)O)sc2C)cc1 is 186 to 188 °C

The recorded melting point for CC(C(=O)O)c1ccccc1F (stereo not drawn) is 47 to 49 °C

The recorded melting point for Cc1noc2nc(C3CC3)cc(C(=O)O)c12 is 215 to 217 °C
